# MEASUREMENT PROTOCOL: Stability of the ginsenosides in rat plasma (QC samples)
# Format: in vitro ADME
# RECORDED CONDITIONS: extracted high QC (911.4 Rb1, 400.0 Rb2, 312.2 Rd, 630.8 Re ng/mL); autosampler 4°C for 12 h
MEASURED METRIC: Recovery (%) Postpreparation
The reply should contain only the number, in %.

Given CC(C)=CCC[C@](C)(O[C@@H]1O[C@H](CO[C@@H]2OC[C@H](O)[C@H](O)[C@H]2O)[C@@H](O)[C@H](O)[C@H]1O)[C@H]1CC[C@]2(C)[C@@H]1[C@H](O)C[C@@H]1[C@@]3(C)CC[C@H](O[C@@H]4O[C@H](CO)[C@@H](O)[C@H](O)[C@H]4O[C@@H]4O[C@H](CO)[C@@H](O)[C@H](O)[C@H]4O)C(C)(C)[C@@H]3CC[C@]12C , state its recorded Recovery (%) Postpreparation.
99.63

* * *

# MEASUREMENT PROTOCOL: Stability of the ginsenosides in rat plasma (QC samples)
# Type: in vitro ADME
# RECORDED CONDITIONS: rat plasma, low QC (7.2 Rb1, 3.2 Rb2, 2.4 Rd, 5.0 Re ng/mL); 1 month at −80°C
MEASURED METRIC: Re (%) Short term

SMI: CC(C)=CCC[C@](C)(O[C@@H]1O[C@H](CO)[C@@H](O)[C@H](O)[C@H]1O)[C@H]1CC[C@]2(C)[C@@H]1[C@H](O)C[C@@H]1[C@@]3(C)CC[C@H](O)C(C)(C)[C@@H]3[C@@H](O[C@@H]3O[C@H](CO)[C@@H](O)[C@H](O)[C@H]3O[C@@H]3O[C@@H](C)[C@H](O)[C@@H](O)[C@H]3O)C[C@]12C
MEASURED METRIC: Re (%) Short term
OBSERVED MEASUREMENT: −10.71%
//
SMI: CC(C)=CCC[C@](C)(O[C@@H]1O[C@H](CO[C@@H]2O[C@H](CO)[C@@H](O)[C@H](O)[C@H]2O)[C@@H](O)[C@H](O)[C@H]1O)[C@H]1CC[C@]2(C)[C@@H]1[C@H](O)C[C@@H]1[C@@]3(C)CC[C@H](O[C@@H]4O[C@H](CO)[C@@H](O)[C@H](O)[C@H]4O[C@@H]4O[C@H](CO)[C@@H](O)[C@H](O)[C@H]4O)C(C)(C)[C@@H]3CC[C@]12C
MEASURED METRIC: Re (%) Short term
OBSERVED MEASUREMENT: −7.55%

Let's switch to this compound now.
Given CC(C)=CCC[C@](C)(O[C@@H]1O[C@H](CO[C@@H]2OC[C@H](O)[C@H](O)[C@H]2O)[C@@H](O)[C@H](O)[C@H]1O)[C@H]1CC[C@]2(C)[C@@H]1[C@H](O)C[C@@H]1[C@@]3(C)CC[C@H](O[C@@H]4O[C@H](CO)[C@@H](O)[C@H](O)[C@H]4O[C@@H]4O[C@H](CO)[C@@H](O)[C@H](O)[C@H]4O)C(C)(C)[C@@H]3CC[C@]12C , state its recorded Re (%) Short term.
−9.70%

* * *

# MEASUREMENT PROTOCOL: Pharmacokinetics of four ginsenosides in rat plasma after oral administration of PQ-AG and PQ extracts (UPLC-MS/MS)
# Type: in vivo
# RECORDED CONDITIONS: PQ-AG group: oral PQ-AG extract 1.08 g/kg, male SD rats, n = 6, mean ± SD
MEASURED METRIC: Tmax (h)
The reply should contain only the number, in h.

Sample answers from the record:
COMPOUND: CC(C)=CCC[C@](C)(O[C@@H]1O[C@H](CO)[C@@H](O)[C@H](O)[C@H]1O)[C@H]1CC[C@]2(C)[C@@H]1[C@H](O)C[C@@H]1[C@@]3(C)CC[C@H](O)C(C)(C)[C@@H]3[C@@H](O[C@@H]3O[C@H](CO)[C@@H](O)[C@H](O)[C@H]3O[C@@H]3O[C@@H](C)[C@H](O)[C@@H](O)[C@H]3O)C[C@]12C [Re]
MEASURED METRIC: Tmax
OBSERVED MEASUREMENT: 0.58

COMPOUND: CC(C)=CCC[C@](C)(O[C@@H]1O[C@H](CO[C@@H]2OC[C@H](O)[C@H](O)[C@H]2O)[C@@H](O)[C@H](O)[C@H]1O)[C@H]1CC[C@]2(C)[C@@H]1[C@H](O)C[C@@H]1[C@@]3(C)CC[C@H](O[C@@H]4O[C@H](CO)[C@@H](O)[C@H](O)[C@H]4O[C@@H]4O[C@H](CO)[C@@H](O)[C@H](O)[C@H]4O)C(C)(C)[C@@H]3CC[C@]12C [Rb2]
MEASURED METRIC: Tmax
OBSERVED MEASUREMENT: 7.67

COMPOUND: CC(C)=CCC[C@](C)(O[C@@H]1O[C@H](CO)[C@@H](O)[C@H](O)[C@H]1O)[C@H]1CC[C@]2(C)[C@@H]1[C@H](O)C[C@@H]1[C@@]3(C)CC[C@H](O[C@@H]4O[C@H](CO)[C@@H](O)[C@H](O)[C@H]4O[C@@H]4O[C@H](CO)[C@@H](O)[C@H](O)[C@H]4O)C(C)(C)[C@@H]3CC[C@]12C [Rd]
MEASURED METRIC: Tmax
OBSERVED MEASUREMENT: 6.33

Let's switch to this compound now.
Given CC(C)=CCC[C@](C)(O[C@@H]1O[C@H](CO[C@@H]2O[C@H](CO)[C@@H](O)[C@H](O)[C@H]2O)[C@@H](O)[C@H](O)[C@H]1O)[C@H]1CC[C@]2(C)[C@@H]1[C@H](O)C[C@@H]1[C@@]3(C)CC[C@H](O[C@@H]4O[C@H](CO)[C@@H](O)[C@H](O)[C@H]4O[C@@H]4O[C@H](CO)[C@@H](O)[C@H](O)[C@H]4O)C(C)(C)[C@@H]3CC[C@]12C [Rb1] , state its recorded Tmax.
6.67
